These entries and their values trace back to patent US20250340623A1.

# MEASURED ON: alpha-synuclein fibrils (UniProt P37840 1-140)
# MEASUREMENT DESCRIPTION: SPR, captured mAb
MEASURED ENDPOINT: kon
Please format your answer as a value with the unit trailing.

Exercise: Which kon value belongs to ACI-7087-4119E10-Ab2 (antibody, V domains shown, mouse hybridoma mAb; VH/VL only; also called 4119E10D12) VH: QVQLQQSGAELVRPGASVTLSCKASGYTFSDYEMNWVKQTPVHGLEWIGAIDPETGGTAYNQKFKGKAILTSDKSSSTAYMELRSLTSEDSAVYYCTRFLLIDFDYWGQGTTLTVSS VL: DVLMTQTPLSLPVSLGDQASISCRSSQSIVHSNGNTYLEWYLKKAGQSPKVLIYKVSNRFSGVPDRFSGSGSGTDFTLKISRVEAEDLGVYYCFQGSHVPYTFGGGTELEIK ?
Solution: 280000 M⁻¹ s⁻¹

Exercise: Which kon value belongs to ACI-8033-6402E2-Ab2 (antibody, V domains shown, mouse hybridoma mAb; VH/VL only; also called 6402E2E4) VH: EVQLQHSGPDLVKPGASVKISCKASGYTFTDYYMNWVKQSHGKSLEWIGDINPNNGDTTYNQKFKGRATLTVDKSSSTAYMELRSLTSEDSAVYYCARSGSNYYAMDSWGQGTSVTVSS VL: DIVMSQSPSSLAVSAGERVTMSCKSSQSLFNSRTRKNYLAWYQQKPGQSPKLLIYWASTRESGVPDRFTGSGSGTDFSLNISSVQAEDLAVYYCKQSYDLWTFGGGTKLEIK ?
Solution: 7350 M⁻¹ s⁻¹
